Recorded Expression Normalization to mAb 65C12 for the following binders
Biological target: T1, human ASGR-1 mutant construct H203 (human, UniProt P07306 1-291)
T1 construct: Arg/Glu scanning: non-arginine residues were changed to arginine; Transiently expressed on CHO-S cells
T1 sequence: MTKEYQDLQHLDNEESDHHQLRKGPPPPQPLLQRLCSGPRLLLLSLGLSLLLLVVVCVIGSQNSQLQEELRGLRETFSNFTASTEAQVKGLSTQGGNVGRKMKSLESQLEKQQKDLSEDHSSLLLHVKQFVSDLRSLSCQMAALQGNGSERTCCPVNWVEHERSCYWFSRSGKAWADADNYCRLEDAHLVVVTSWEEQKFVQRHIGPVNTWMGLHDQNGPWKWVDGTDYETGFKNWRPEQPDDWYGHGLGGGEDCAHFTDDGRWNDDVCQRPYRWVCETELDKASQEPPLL
Test: FACS ratio: 65C12 geomean / this mAb geomean
Experimental: Mutant hASGR-1 variants were constructed such that non-arginine residues were changed to arginine and where wild type arginine residues were mutated to glutamic acid. Each mutant hASGR-1 sequence was then cloned into a mammalian expression vector and used to transiently transfect CHOs cells. The ability of human ASGR-1-specific, ligand competing antibodies to bind to the mutant hASGR-1 proteins was assessed by FACS as described above. […]
Answer field: number only, no words.

59F2 (antibody, V domains shown, mAb) VH: EVQLVESGGGLVQPGGSLRLSCGASGFTFSSYSMNWVRQAPGKGLEWVSYISGSSNIIYYTDSVKGRFTISRDNAKNSLYLQMNSLRDEDTAVYYCARADTPMVLYFYGMDVWGQGTTVTVSS VL: SYELTQPPSVSVSPGQTASITCSGDKLGDKYASWYQQRPGQSPVLVIYQDNKRPSGIPERFSGSNSGNTATLTISGTQAMDEADYYCQAWDNNTVVFGGGTKLTVL    19.1
151B9 (antibody, V domains shown, mAb) VH: EVQLLESGGGLVQPGGSLRLSCAASGFTFSSYAMSWVRQAPGKGLEWVSVISGGGSSTYYADSVKGRFTISRDNSKNTLYLQMNSLRAEDTAVYYCAKWRGNPTDYGMDVWGQGTTVTVSS VL: SYELTQPPSVSVSPGQTASIACSGDNLGDKYASWYQQKPGQSPVLVIYQDSKRPSGIPERFSGSNSGNTATLTISGIQAMDEADYYCQAWDSSTVVFGGGTKLTVL    2.65

Now consider a different binder.
Req: Look up Expression Normalization to mAb 65C12: 32D6 (antibody, V domains shown, mAb) VH: QVQLVESGGGVVQPGRSLRLSCAASGFTFSSYGMHWVRQAPGKGLEWVTVIWHDGSNAYYADSVKGRFTISRDNSKNTLYLQMNSLRAEDTAVYYCARENSSSYYFDYWGQGTLVTVSS VL: DIQMTQSPSSLSTSVGDRVTITCRASQNIISYLNWYQQKPGKAPKLLMYVASRLQSGVPSRFSGSGSGTDFTLTISSLQAEDFATYYCQQSYSTPYTFGGGTKVAIK
Resp: 1.91
